Answer each item with its documented TGI.
Tested on: OVCAR-3 ovarian
PROCEDURE SUMMARY: NCI tumour cell line growth inhibition, 48 h

input: What does the data say about its TGI? Entry: CCN(CC)c1ccc(/C=N/N=C(N)N)cc1
output: 4.91 µM

input: Reported TGI for CCCCC[C@H]1C/C=C2/C(=O)C=C[C@@H]2C/C=C\CCCC(=O)O1 : what is it?
output: 0.664 µM

input: Would you mind telling me what TGI value was observed for COc1c(NC(C)=O)c2ccccc2c2ccccc12 ?
output: > 100 µM

input: Give the measured TGI of COc1ccc(-c2csc3c2[N+]2(C)C=CC=C2C3N2CCCC2)cc1 (stereo not given) .
output: 52.6 µM

input: Field request: TGI | item: C[C@H](CCc1nc(C#N)c(N)o1)[C@H]1CC[C@H]2[C@@H]3CCC4C[C@@H](O)CC[C@]4(C)[C@H]3C[C@@H](O)[C@]12C (stereo not given in full)
output: 27.3 µM

input: So what's the measured TGI for this one? CNC(=O)NCCCCC(NC(C)=O)C(=O)NCc1ccccc1 (stereo not given)
output: > 100 µM

input: I am curious: what TGI value has been reported for Cc1c2oc(=O)c(C#N)cc2c2ccccn12 ?
output: 69.5 µM

input: Look up TGI for this compound: O=C1C(=O)N(c2cc(Cl)ccc2Cl)C(=O)C(=O)C1c1nc2ccccc2s1
output: > 100 µM

input: I'd like to know its TGI. The compound in question is COc1c(OC2OC(C)C(O)C(O)C2O)c(OC)c2oc(-c3ccc(O)cc3)cc(=O)c2c1O (stereo not given)
output: 64.4 µM

input: Looking for the measured TGI of O=C(Nc1ccccc1)N1C(c2ccccc2)=N[C@@H](c2ccccc2)[C@@H]1c1ccccc1 , can you help?
output: 62.8 µM

---

What TGI was measured for each of the following?
System: SK-MEL-2 melanoma
PROCEDURE SUMMARY: NCI tumour cell line growth inhibition, 48 h

input: If you can, please state the reported TGI value of CC(=O)/C(=N\N=C(N)N)c1ccccc1 .
output: > 100 µM

input: Which TGI is reported for this compound? C=C1c2nc3ccccc3n2C=C(c2ccccc2)N1c1ccc(C)cc1
output: > 100 µM

input: Given the compound CNC(=O)NCCCCC(NC(C)=O)C(=O)NCc1ccccc1 (stereo unspecified) , what is its reported TGI?
output: > 100 µM

input: Query: TGI; subject: c1ccc(C2N=C(c3ccccn3)C(c3ccccn3)=NC2c2ccccc2)cc1 (stereo unspecified)
output: > 100 µM

input: Return reported TGI; argument: COc1ccc(-c2csc3c2[N+]2(C)C=CC=C2C3N2CCCC2)cc1 (stereo unspecified)
output: 31.1 µM

input: Name the reported TGI value associated with the compound Cc1cc(C)nc(NC(=O)COc2ccc(Cl)cc2)c1
output: > 100 µM

---

Test system: RPMI-8226 leukemia
PROCEDURE SUMMARY: NCI tumour cell line growth inhibition, 48 h
Each entry gets -1 if its TGI stays under 30 µM, and 1 if its TGI is 30 µM or above.

input: Item COc1cc(C=NCC(=O)CSC(c2ccccc2)c2ccccc2)ccc1O with TGI of 30 µM or above?
output: -1

input: Threshold query (TGI >= 30 µM) on O=S1(=O)CCC2=CC(C(F)(F)F)=CC(C(F)(F)F)=CN21
output: -1

input: Identify whether the reported TGI of the following molecule is 30 µM or greater: O=C(NCc1cn(Cc2cccc(Oc3ccccc3)c2)nn1)c1cccnc1NCc1ccc(Cl)cc1
output: 1

input: Is the recorded value of TGI equal to or greater than 30 µM for this molecule? CC(=O)/C(=N\N=C(N)N)c1ccccc1
output: 1

input: Textbook exercise: given the entry CN1CCC(O)(OC(=O)C(c2ccccc2)C2(O)CCCC2)CC1 (stereo unspecified) , state whether its TGI is greater than or equal to 30 µM.
output: 1

input: Determine whether this molecule has TGI no lower than 30 µM: Cc1cc(C)c(-c2c(O)c(Br)c(-c3c(C)cc(C)c(Br)c3C)c(O)c2Br)c(C)c1Br
output: -1

input: Answer whether TGI of CCN(CC)c1ccc(/C=N/N=C(N)N)cc1 is greater than or equal to 30 µM.
output: -1

input: Can C[C@H](CCc1nc(C#N)c(N)o1)[C@H]1CC[C@H]2[C@@H]3CCC4C[C@@H](O)CC[C@]4(C)[C@H]3C[C@@H](O)[C@]12C (stereo partly specified) be said to have TGI at or above 30 µM?
output: -1

input: Quick check: does C#CCn1c(I)cc2c(c1=O)COC(=O)[C@]2(O)CC have TGI greater than or equal to 30 µM?
output: 1

input: Is it the case that O=C(O)C12C=CC(C1)c1ccccc12 (stereo unspecified) has TGI reaching or exceeding 30 µM?
output: 1

input: In plain terms: is recorded TGI at least 30 µM for Cc1cccc(C=NC23CC4CC(CC(C4)C2)C3)c1 ?
output: 1

input: Hello, I need to know if C[C@]12CC[C@H]3[C@@H](CC=C4C[C@@H](O)CC[C@@]43C)[C@@H]1C/C(=C\c1ccc([N+](=O)[O-])cc1)[C@@H]2O has measured TGI not below 30 µM. Thanks!
output: 1

input: Please tell me: is the molecule COc1ccc(/C=C(\C#N)c2cc(OC)c(OC)c(OC)c2)cc1 at or over 30 µM in terms of TGI?
output: -1

input: Say whether NCCCNCCSP(=O)(O)O shows TGI of 30 µM or more.
output: 1

input: Say whether C=C1c2nc3ccccc3n2C=C(c2ccccc2)N1c1ccc(C)cc1 shows TGI of 30 µM or more.
output: 1

input: Check the entry C[C@@H]([C@H]1CC[C@@]2(C)[C@@H]3CC[C@@H]4C(=CC3=CC[C@]12C)CC[C@H](N(C)C)C4(C)C)N(C)C : does TGI equal or exceed 30 µM?
output: 1

input: # check: TGI of O=C(Oc1cncc(Cl)c1)c1cc2ccccc2sc1=O is greater than or equal to 30 µM
output: 1

input: Evaluate COc1ccc(CN2c3ccccc3Sc3ccccc32)cc1O : TGI at minimum 30 µM?
output: 1

input: Has OC[C@H]1N[C@H](CO)[C@@H](O)[C@H]1O a recorded TGI greater than or equal to 30 µM?
output: 1

input: Does TGI meet or surpass 30 µM for CC(C)(C)c1cc(C(C)(C)C)c(SC2OC(CO)C(O)C(O)C2O)c(O)c1O (stereo unspecified) ?
output: 1

---

Tested on: RPMI-8226 leukemia
PROCEDURE SUMMARY: NCI tumour cell line growth inhibition, 48 h; in the data active means GI50 below about 0.43 µM; inactive means the rest
Classes to choose from: 1 (yes) for active, 0 (no) for inactive

input: # lookup: test call for CSCc1ncc(-c2ccc(C(F)(F)F)cc2)c(NC2CCCCCC2)n1
output: 0 (no)

input: Check the results log: what was the call for C[C@]12CCC3c4ccc(O)cc4CCC3C1CC[C@@H]2NC(=O)/C=C/c1ccc(O)c(O)c1 (stereo partly drawn) ?
output: 0 (no)

input: Check the results log: what was the call for Fc1ccc(-c2ncn(C3CCNCC3)c2-c2ccnc(Oc3ccc(Cl)cc3)n2)cc1 ?
output: 0 (no)

input: Recorded test outcome, item COc1cc(C2CC(c3ccc(Cl)cc3)=NN2C(C)=O)ccc1Oc1ccnc2cc(Cl)ccc12 (stereo not drawn)
output: 0 (no)

input: What did the test return for CCCCS(=O)(=O)c1cc(Nc2ccc(O)c3c2C(=O)c2ccccc2C3=O)ccc1C ?
output: 0 (no)

input: Please let me know the test result on file for O=C(OCC1=CC(=O)c2ccccc2C1=O)c1ccccc1 .
output: 0 (no)

input: Hello, I am checking results. What call was entered for COc1ccc(C2=NNC(c3sc(Cl)nc3Cl)C2)cc1 (stereo not drawn) ?
output: 0 (no)

input: Please indicate how the test categorized CN(Cc1cnc2nc(N)nc(N)c2n1)c1c(Cl)cc(C(=O)NC(CCC(=O)O)C(=O)O)cc1Cl (stereo not drawn) .
output: 1 (yes)

input: Hey, what did the test say about Cc1nc(C(=O)OCc2ccccc2)cc(OCc2ccccc2)c1C ?
output: 0 (no)

input: Tell me the recorded outcome of this test for CC(=O)c1nc(-c2ccc(C[C@@H](CNC(=O)CN(C)C)NC(=O)c3ccc(OC(C)C)c(Cl)c3)cc2)cn1C .
output: 1 (yes)

input: I would be grateful if you could indicate the recorded call for COC1CCC(OC)C(c2nc3sccn3c2/C=N/N=C(N)N)C1 (stereo not drawn) .
output: 0 (no)

input: Outcome? CCOc1ccc2cc(-c3nn(CC4CCN(C)CC4)c4ncnc(N)c34)ccc2c1
output: 0 (no)

input: Field: outcome | Entry: C/C(=N\NC(=S)N1CCCC1)c1ccccn1
output: 1 (yes)

---

System: SW-620 colon
PROCEDURE SUMMARY: NCI tumour cell line growth inhibition, 48 h
Could you please report measured TGI for the items listed next?

input: Lab note: need TGI with SW-620 colon for entry O=C(Cc1nc2ccccc2s1)C(=O)Nc1cccc(C(F)(F)F)c1 , please look it up.
output: > 100 µM

input: I'm curious: which TGI was measured for CC1(C)CC(=O)C2=C(C1)NC(=S)C(C#N)C2c1ccccc1 (stereo unspecified) tested on SW-620 colon?
output: > 100 µM

input: Hi! What's the reported TGI for C/C(=N\NC(=S)N1CCCC1)c1ccccn1 on SW-620 colon?
output: 16.8 µM

input: Value wanted: TGI (SW-620 colon) of entry CC12CC(c3ccccc3O1)C(C(=O)Nc1nccs1)C(=O)N2 (stereo unspecified)
output: > 100 µM

input: For SW-620 colon, provide TGI of O=C1OC2(CCCCC2)C(Oc2ccc(Cl)cc2)=C1F please.
output: > 100 µM

input: What reported TGI corresponds to COc1ccc(N=C(C)C(C)=Nc2ccc(OC)cc2)cc1 on SW-620 colon?
output: > 100 µM

input: Param readout= TGI; system= SW-620 colon; entry= CCOC(=O)C1=C(N2CCCC2)C(=O)C(C(=O)OCC)C1 (stereo unspecified) ; returns value.
output: > 100 µM

input: Please provide the recorded TGI for CCCCn1c(-c2ccccc2)cs/c1=N\NC(=O)Cn1c(C)nc2ccccc21 , tested on SW-620 colon.
output: > 100 µM

input: Form field: TGI recorded for Oc1c(NCn2nc(CCCCCCCCc3nn(CNc4ccc5ccccc5c4O)c(=S)o3)oc2=S)ccc2ccccc12 with SW-620 colon (enter value)
output: > 100 µM

input: Give SW-620 colon TGI for COc1ccc(C2=NNC(c3sc(Cl)nc3Cl)C2)cc1 (stereo unspecified)
output: 23.6 µM

input: Form field - read-out: TGI; system: SW-620 colon; submitted item: CC(C)(C)OC(=O)NCCCCCCCCCCCCn1c2c(c3ccccc3c1=O)C(=O)c1ccccc1-2
output: > 100 µM
